Consider the following pKi data for Retinoic acid receptor beta (Homo sapiens), collected from several reports.
When answering, recall that pKi equals minus log10 of the concentration in mol/L, and write that number alone.

>>> measured_number("CCOc1c(\\C(=C/C=C/C(C)=C/C(=O)O)CC)cc2c(c1Cl)OC(C)(C)C=C2C(C)C")
5.85
>>> measured_number("CCOc1cc2c(cc1\\C(=C/C=C/C(C)=C/C(=O)O)CC)C(C)=CCC2(C)C")
6.21
>>> measured_number("CC/C(=C(F)/C=C/C(C)=C/C(=O)O)c1cc(C(C)C)cc2c1N(CC)CCC2(C)C")
6.37

Specify measured pKi for CCCOc1cc2c(cc1\C(C)=C(F)/C=C/C(C)=C/C(=O)O)C(C)(C)CCC2(C)C .
6.31

Specify measured pKi for COc1cc2c(cc1C(/C=C/c1ccc(C(=O)O)cc1)=N\O)C(C)(C)CCC2(C)C .
5.00

Specify measured pKi for CC(C)CCN(c1ccc(C(=O)O)cc1)c1ccc2c(c1)C(C)(C)CCN2C(C)C .
5.11

Specify measured pKi for CC1(C)CCSc2ccc(C(/C=C/c3ccc(C(=O)O)cc3F)=N\O)cc21 .
5.00

Specify measured pKi for CCN(c1ccc(C(=O)O)cc1)c1ccc2c(c1)C(C)(C)CCN2C(C)C .
5.10

Specify measured pKi for CCN1CCC(C)(C)c2cc(C(C)C)cc(\C(C)=C(F)/C=C/C(C)=C/C(=O)O)c21 .
6.08

Specify measured pKi for CC/C(=C(F)/C=C/C(C)=C/C(=O)O)c1cc2c(cc1OC)OC(C)(C)C=C2C(C)(C)C .
6.07

Specify measured pKi for CCOc1cc2c(cc1\C(=C/C=C/C(C)=C/C(=O)O)CC)C(C)=CC(C)(C)O2 .
6.21

Specify measured pKi for CC1=CCC(C)(C)c2cc(C(/C=C/c3ccc(C(=O)O)cc3F)=N/O)ccc21 .
4.96

###

Consider the following pKi data for Retinoic acid receptor beta (Homo sapiens, UniProt P10826), collected from several reports.
When answering, recall that pKi equals minus log10 of the concentration in mol/L, and write that number alone.

>>> measured_number("CCOc1cc2c(cc1\\C(=C/C=C/C(C)=C/C(=O)O)C(F)(F)F)C(C)(C)CCC2(C)C")
6.43

Name the recorded pKi of CCOc1cc2c(cc1\C(C)=C/C=C/C(C)=C/C(=O)O)C(C(C)C)=CC(C)(C)O2 , assay system Retinoic acid receptor beta (Homo sapiens, UniProt P10826).
5.41

Name the recorded pKi of Cc1cc2c(cc1N(CC1CC1)c1ccc(C(=O)O)cc1)C(C)(C)CCN2C(C)C , assay system Retinoic acid receptor beta (Homo sapiens, UniProt P10826).
4.96

Name the recorded pKi of CC1(C)CCCc2ccc(C(/C=C/c3ccc(C(=O)O)cc3F)=N/O)cc21 , assay system Retinoic acid receptor beta (Homo sapiens, UniProt P10826).
5.92

###

Consider the following pKi data for Retinoic acid receptor beta (Homo sapiens), collected from several reports.
When answering, recall that pKi equals minus log10 of the concentration in mol/L, and write that number alone.

>>> measured_number("CCOc1cc2c(cc1\\C(CC)=C(F)/C=C/C(C)=C/C(=O)O)C(CC)=CCC2(C)C")
6.32

Name the recorded pKi of CCC1=CC(C)(C)Oc2cc(OC)c(\C(C)=C/C=C/C(C)=C/C(=O)O)cc21 , assay system Retinoic acid receptor beta (Homo sapiens).
5.00

Name the recorded pKi of CCOc1cc2c(cc1\C(C)=C(F)/C=C/C(C)=C/C(=O)O)C(C(C)(C)C)=CCC2(C)C , assay system Retinoic acid receptor beta (Homo sapiens).
6.40

Name the recorded pKi of CCCOc1cc2c(cc1C(=C/C=C/C(C)=C/C(=O)O)C(F)(F)F)C(C)(C)CCC2(C)C (stereo in doubt) , assay system Retinoic acid receptor beta (Homo sapiens).
6.34

Name the recorded pKi of CCCCCCCN1C(=O)CC(C)(C)c2cc(C(C=Cc3ccc(C(=O)O)cc3)=NO)ccc21 , assay system Retinoic acid receptor beta (Homo sapiens).
4.54

Name the recorded pKi of CCOc1c(\C(CC)=C(F)/C=C/C(C)=C/C(=O)O)cc2c(c1Cl)OC(C)(C)C=C2C(C)C , assay system Retinoic acid receptor beta (Homo sapiens).
6.37

Name the recorded pKi of CC(C)N1CCC(C)(C)c2ccc(N(CC3CC3)c3ccc(C(=O)O)cc3)cc21 , assay system Retinoic acid receptor beta (Homo sapiens).
4.62

Name the recorded pKi of CCCCCCCN1C(=O)CC(C)(C)c2cc(C(/C=C/c3ccc(C(=O)O)cc3)=N\O)ccc21 , assay system Retinoic acid receptor beta (Homo sapiens).
5.05
